Target: HLA-B*51:01
Test: IEDB peptide-MHC binding, purified MHC/direct/fluorescence; filed as Kd, often an IC50 or EC50 that approximates it; bounds were set here for any values at or beyond the usual limits of such assays
Details: source organism: Giardia lamblia ATCC 50803
pKd: −log10 of the molar value.
Parameter: pKd

VLRQAALSL; ≤ 4.70

// next entry
What measured pKd is associated with RPALVVDTP on HLA-B*51:01?
≤ 4.70

====

Biological target: HLA-A*02:01
Experiment: IEDB peptide-MHC binding, purified MHC/direct/fluorescence; filed as Kd, often an IC50 or EC50 that approximates it; bounds were set here for any values at or beyond the usual limits of such assays
Conditions: source organism: Giardia lamblia ATCC 50803
pKd: −log10 of the molar value.
pKd for assorted sequences

Solved cases below.
IRNLVKRYK; ≤ 4.70
YFLESNFFI; 9.22
ITASKDLCF; ≤ 4.70
AEFWDVFLS; ≤ 4.70
RTRFFCIPK; 4.76

Need pKd, item AIPYFYKGK
≤ 4.70

Do the same for RPALVVDTP please
≤ 4.70
